shrunken log2 fold change by entry:
# Tested on: Escherichia coli TOP10
# experimental-details: shrunken log2 fold change of peptide-encoding DNA abundance (4.5 h post-induction vs induction); higher = less antimicrobial activity (less host growth inhibition)
# protocol-conditions: time post-induction: 4.5 h; library: site-saturation at positions 5, 18, 19, 20
No unit in the answer, only the number.

Past entries and their recorded results:
{"polymer-sequence": "RRIRKRPPRLPRPRPRPDYPPRP", "shrunken log2 fold change": -0.0226}
{"polymer-sequence": "RRIRCRPPRLPRPRPRPFANPRP", "shrunken log2 fold change": -0.29}
{"polymer-sequence": "RRIRDRPPRLPRPRPRPMHPPRP", "shrunken log2 fold change": -0.0589}
{"polymer-sequence": "RRIRARPPRLPRPRPRPSYHPRP", "shrunken log2 fold change": -0.255}
{"polymer-sequence": "RRIRERPPRLPRPRPRPYWVPRP", "shrunken log2 fold change": -0.338}

Now consider a different sequence.
I'd like to know its shrunken log2 fold change. The sequence in question is RRIRYRPPRLPRPRPRPINKPRP
-1.43

* * *

# Tested on: Escherichia coli TOP10
# experimental-details: shrunken log2 fold change of peptide-encoding DNA abundance (4.5 h post-induction vs induction); higher = less antimicrobial activity (less host growth inhibition)
# protocol-conditions: time post-induction: 4.5 h; library: site-saturation at positions 5, 18, 19, 20
Give Criterion met when the value for shrunken log2 fold change is at least -0.08. Give Criterion not met when it is less.

Previously resolved entries follow.
{"polymer-sequence": "RRIRLRPPRLPRPRPRPDASPRP", "assigned-label": "Criterion met"}
{"polymer-sequence": "RRIRKRPPRLPRPRPRPKAMPRP", "assigned-label": "Criterion met"}
{"polymer-sequence": "RRIRMRPPRLPRPRPRPESPPRP", "assigned-label": "Criterion met"}
{"polymer-sequence": "RRIRARPPRLPRPRPRPRVPPRP", "assigned-label": "Criterion met"}
{"polymer-sequence": "RRIRDRPPRLPRPRPRPVRIPRP", "assigned-label": "Criterion met"}
{"polymer-sequence": "RRIRSRPPRLPRPRPRPTYWPRP", "assigned-label": "Criterion not met"}

Has RRIRTRPPRLPRPRPRPHVMPRP a recorded shrunken log2 fold change greater than or equal to -0.08?
Criterion not met

Has RRIRARPPRLPRPRPRPHLYPRP a recorded shrunken log2 fold change greater than or equal to -0.08?
Criterion not met

Has RRIRPRPPRLPRPRPRPGEQPRP a recorded shrunken log2 fold change greater than or equal to -0.08?
Criterion met

Has RRIRSRPPRLPRPRPRPIVWPRP a recorded shrunken log2 fold change greater than or equal to -0.08?
Criterion met

Has RRIRKRPPRLPRPRPRPLSGPRP a recorded shrunken log2 fold change greater than or equal to -0.08?
Criterion not met

Has RRIRRRPPRLPRPRPRPESDPRP a recorded shrunken log2 fold change greater than or equal to -0.08?
Criterion met

* * *

# Tested on: Escherichia coli TOP10
# experimental-details: shrunken log2 fold change of peptide-encoding DNA abundance (4.5 h post-induction vs induction); higher = less antimicrobial activity (less host growth inhibition)
# protocol-conditions: time post-induction: 4.5 h; library: site-saturation at positions 5, 18, 19, 20
observable: shrunken log2 fold change

Past entries and their recorded results:
{"polymer-sequence": "RRIRLRPPRLPRPRPRPCKYPRP", "shrunken log2 fold change": -0.0018}
{"polymer-sequence": "RRIRLRPPRLPRPRPRPVIGPRP", "shrunken log2 fold change": -0.173}
{"polymer-sequence": "RRIRKRPPRLPRPRPRPVCLPRP", "shrunken log2 fold change": 0.0948}
{"polymer-sequence": "RRIRYRPPRLPRPRPRPWMVPRP", "shrunken log2 fold change": -0.523}
{"polymer-sequence": "RRIRRRPPRLPRPRPRPPIVPRP", "shrunken log2 fold change": -0.00408}
{"polymer-sequence": "RRIRIRPPRLPRPRPRPVAFPRP", "shrunken log2 fold change": -0.306}
{"polymer-sequence": "RRIRKRPPRLPRPRPRPNTSPRP", "shrunken log2 fold change": 0.0472}

Now consider a different sequence.
I'd like to know its shrunken log2 fold change. The sequence in question is RRIRFRPPRLPRPRPRPDVQPRP
-0.0115

* * *

# Tested on: Escherichia coli TOP10
# experimental-details: shrunken log2 fold change of peptide-encoding DNA abundance (4.5 h post-induction vs induction); higher = less antimicrobial activity (less host growth inhibition)
# protocol-conditions: time post-induction: 4.5 h; library: site-saturation at positions 5, 18, 19, 20
Give Y when the value for shrunken log2 fold change is at least 0.02. Give N when it is less.

Previously resolved entries follow.
{"polymer-sequence": "RRIRLRPPRLPRPRPRPMRSPRP", "system-tested": "Escherichia coli TOP10", "assigned-label": "N"}
{"polymer-sequence": "RRIRLRPPRLPRPRPRPFWGPRP", "system-tested": "Escherichia coli TOP10", "assigned-label": "N"}
{"polymer-sequence": "RRIRARPPRLPRPRPRPLSEPRP", "system-tested": "Escherichia coli TOP10", "assigned-label": "Y"}
{"polymer-sequence": "RRIRNRPPRLPRPRPRPNTEPRP", "system-tested": "Escherichia coli TOP10", "assigned-label": "N"}
{"polymer-sequence": "RRIRQRPPRLPRPRPRPPLSPRP", "system-tested": "Escherichia coli TOP10", "assigned-label": "Y"}
{"polymer-sequence": "RRIRKRPPRLPRPRPRPLRAPRP", "system-tested": "Escherichia coli TOP10", "assigned-label": "Y"}

Has RRIRKRPPRLPRPRPRPLNYPRP a recorded shrunken log2 fold change greater than or equal to 0.02?
N

Has RRIRERPPRLPRPRPRPVEYPRP a recorded shrunken log2 fold change greater than or equal to 0.02?
N

Has RRIRLRPPRLPRPRPRPPNRPRP a recorded shrunken log2 fold change greater than or equal to 0.02?
Y

Has RRIRMRPPRLPRPRPRPGHWPRP a recorded shrunken log2 fold change greater than or equal to 0.02?
Y

Has RRIRLRPPRLPRPRPRPHIHPRP a recorded shrunken log2 fold change greater than or equal to 0.02?
N

Has RRIRDRPPRLPRPRPRPMLAPRP a recorded shrunken log2 fold change greater than or equal to 0.02?
Y

Has RRIRHRPPRLPRPRPRPYMMPRP a recorded shrunken log2 fold change greater than or equal to 0.02?
N

* * *

# Tested on: Escherichia coli TOP10
# experimental-details: shrunken log2 fold change of peptide-encoding DNA abundance (4.5 h post-induction vs induction); higher = less antimicrobial activity (less host growth inhibition)
# protocol-conditions: time post-induction: 4.5 h; library: site-saturation at positions 5, 18, 19, 20
observable: shrunken log2 fold change

Past entries and their recorded results:
{"polymer-sequence": "RRIRFRPPRLPRPRPRPVWTPRP", "system-tested": "Escherichia coli TOP10", "shrunken log2 fold change": -0.488}
{"polymer-sequence": "RRIRVRPPRLPRPRPRPPGGPRP", "system-tested": "Escherichia coli TOP10", "shrunken log2 fold change": 0.598}
{"polymer-sequence": "RRIRERPPRLPRPRPRPCFQPRP", "system-tested": "Escherichia coli TOP10", "shrunken log2 fold change": -0.25}
{"polymer-sequence": "RRIRARPPRLPRPRPRPWNGPRP", "system-tested": "Escherichia coli TOP10", "shrunken log2 fold change": 0.0566}
{"polymer-sequence": "RRIRSRPPRLPRPRPRPNWNPRP", "system-tested": "Escherichia coli TOP10", "shrunken log2 fold change": -0.453}

I'd like to know its shrunken log2 fold change. The sequence in question is RRIRARPPRLPRPRPRPDYAPRP
2.44

I'd like to know its shrunken log2 fold change. The sequence in question is RRIRCRPPRLPRPRPRPEGCPRP
3.02

I'd like to know its shrunken log2 fold change. The sequence in question is RRIRMRPPRLPRPRPRPFVDPRP
-0.338

* * *

# Test system: Escherichia coli TOP10
# experimental-details: shrunken log2 fold change of peptide-encoding DNA abundance (4.5 h post-induction vs induction); higher = less antimicrobial activity (less host growth inhibition)
# protocol-conditions: time post-induction: 4.5 h; library: site-saturation at positions 5, 18, 19, 20
observable: shrunken log2 fold change
No unit in the answer, only the number.

I'd like to know its shrunken log2 fold change. The sequence in question is RRIRTRPPRLPRPRPRPLLLPRP
0.758

I'd like to know its shrunken log2 fold change. The sequence in question is RRIRIRPPRLPRPRPRPSPMPRP
-0.2

I'd like to know its shrunken log2 fold change. The sequence in question is RRIRQRPPRLPRPRPRPGEIPRP
-0.366

* * *

# Test system: Escherichia coli TOP10;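 further: peptides expressed intracellularly from a pBAD plasmid library in pooled LB shake-flask culture, induced with 0.3% L-arabinose, DNA abundance read by NGS, three biological replicates, DESeq2 with apeglm shrinkage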
# experimental-details: shrunken log2 fold change of peptide-encoding DNA abundance (4.5 h post-induction vs induction); higher = less antimicrobial activity (less host growth inhibition)
# protocol-conditions: time post-induction: 4.5 h; library: site-saturation at positions 5, 18, 19, 20
observable: shrunken log2 fold change
No unit in the answer, only the number.

{"polymer-sequence": "RRIRQRPPRLPRPRPRPSHWPRP", "shrunken log2 fold change": -0.153}
{"polymer-sequence": "RRIRFRPPRLPRPRPRPSHGPRP", "shrunken log2 fold change": -0.391}
{"polymer-sequence": "RRIRRRPPRLPRPRPRPRHIPRP", "shrunken log2 fold change": 0.945}
{"polymer-sequence": "RRIRGRPPRLPRPRPRPRVQPRP", "shrunken log2 fold change": 0.218}
{"polymer-sequence": "RRIRIRPPRLPRPRPRPCRQPRP", "shrunken log2 fold change": 0.112}
{"polymer-sequence": "RRIRFRPPRLPRPRPRPRQLPRP", "shrunken log2 fold change": -0.0618}
{"polymer-sequence": "RRIRTRPPRLPRPRPRPEFKPRP", "shrunken log2 fold change": 0.0563}
{"polymer-sequence": "RRIRYRPPRLPRPRPRPRVYPRP", "shrunken log2 fold change": -0.847}
{"polymer-sequence": "RRIRARPPRLPRPRPRPPNIPRP", "shrunken log2 fold change": 0.0251}
{"polymer-sequence": "RRIRNRPPRLPRPRPRPRNDPRP", "shrunken log2 fold change": -0.304}

I'd like to know its shrunken log2 fold change. The sequence in question is RRIRNRPPRLPRPRPRPYNIPRP
-0.13

I'd like to know its shrunken log2 fold change. The sequence in question is RRIRMRPPRLPRPRPRPMYNPRP
-0.815

I'd like to know its shrunken log2 fold change. The sequence in question is RRIRVRPPRLPRPRPRPPLHPRP
0.128

I'd like to know its shrunken log2 fold change. The sequence in question is RRIRFRPPRLPRPRPRPVDDPRP
-0.601

I'd like to know its shrunken log2 fold change. The sequence in question is RRIRGRPPRLPRPRPRPTEPPRP
0.716
